Assay details: NCI Yeast Anticancer Drug Screen. Data for the mec2-1 strain (AID 157)
Test settings: S. cerevisiae mec2-1 strain, at 50.0 µM, stronger effect = higher value
Compounds without any hit were thinned out: in the full panel of roughly 79,000, 15% have a hit.
# binarize growth inhibition: threshold 80% inclusive, high side Condition met, low side Condition not met

Compound | Class
CN(CCOc1ccc(Cl)cc1)CCOc1ccc(Cl)cc1 | Condition met
Cc1nc2sc3c(c2c(=O)o1)CCCC3 | Condition not met
O=[N+]([O-])c1cc[n+]([O-])c(Cl)c1 | Condition met
O=S(=O)(c1cccc(C(F)(F)F)c1)N1c2ccccc2-n2cccc2C1c1cccnc1 (stereo not given) | Condition met
COc1ccc(/C=C2\SC(=S)N(/C=C3\C(=O)N(c4ccccc4)N=C3C)C2=O)cc1OC | Condition not met
CCN(CC)CCNc1ccc(C)c2sc3ccc(O)cc3c(=O)c12 | Condition met
Nc1ccc(N=Nc2ccc(-c3ccc(O)cc3)cc2)c2ccc(S(=O)(=O)O)cc12 | Condition not met
CCOc1ccc2nc3ccccc3c(N)c2c1 | Condition met
Nc1ccc2c(c1)C(=O)c1c(F)cccc1-2 | Condition not met
C/C(=N\OCC(O)CNCCSCc1ccccc1)c1ccccc1Cl (stereo not given) | Condition met
CC(CN(C)C)C(=O)/C=C/c1ccc(Cl)c(Cl)c1 (stereo not given) | Condition met
CCOc1ccc(N)c(S)c1 | Condition met
O=C1c2cccc3cccc(c23)C(=O)N1O | Condition met
CCC(C)(C)c1ccc(Oc2ccccc2)c(N)c1 | Condition met
